Each recorded value in this set is attributed to ChEMBL document CHEMBL4689842.

System: Fibroblast
Assay notes: Multiplex assay against human fibroblast
Format: toxicity, cell-based
Test parameters: 24 h, 10 µM, compound concentration 10 uM, replicate 1
Below, each of the compounds is paired with its reported Population Hoechst High Intensity Objects (%) value.
Endpoint label: Population Hoechst High Intensity Objects (%)

{"Compound": "C=CC(=O)Nc1cccc(Sc2nc(Nc3ccc(N4CCN(C)CC4)cc3)ncc2Cl)c1", "Numeric value": 17}
{"Compound": "CC(C)NC(=O)N1CC[C@H](NC2=Nc3cc(F)ccc3N(CC(F)F)c3ccc(Cl)cc32)C1", "Numeric value": 13}
{"Compound": "C[C@]12CC[C@@H]3c4ccc(O)cc4CC[C@H]3[C@@H]1CC[C@@H]2O [ESTRADIOL]", "Numeric value": 11}
{"Compound": "CCc1nn(CCCN2CCN(c3cccc(Cl)c3)CC2)c(=O)n1CCOc1ccccc1.Cl [NEFAZODONE HYDROCHLORIDE]", "Numeric value": 22}

====

Tested on: HEK-293T
Assay notes: Multiplex assay against HEK293T
Assay type: toxicity, cell-based
Test parameters: human, 48 h, 10 µM, compound concentration 10 uM, replicate 2
Endpoint label: Population Mitochondria Different-Phenotype (%)

{"Molecule": "CN1CCN(Cc2ccc(Nc3ncc(Cl)c(Nc4ccccc4S(=O)(=O)N(C)C)n3)cc2)CC1 [DUBERMATINIB]", "Numeric value": 32}
{"Molecule": "CC(C)NC(=O)N1CC[C@H](NC2=Nc3cc(F)ccc3N(CC(F)F)c3ccc(Cl)cc32)C1", "Numeric value": 46}
{"Molecule": "C[C@]12CC[C@@H]3c4ccc(O)cc4CC[C@H]3[C@@H]1CC[C@@H]2O [ESTRADIOL]", "Numeric value": 4}
{"Molecule": "C#Cc1cccc(Nc2ncnc3cc(OCCOC)c(OCCOC)cc23)c1 [ERLOTINIB]", "Numeric value": 81}

====

Tested on: Fibroblast
Assay notes: Incucyte cell viability with human fibroblast; further: filed as whole numbers so only -1 and 0 and 1 occur
Type: toxicity, cell-based
Test parameters: 24 h, 10 µM, compound concentration 10 uM, replicate number 1, timepoint 24 hours
Below, each of the compounds is paired with its reported Growth Rate value.

{"Compound": "Cc1cc(C)c(-n2ccn3nc(-c4cccnc4)cc23)cc1NC(=O)c1cc(C#N)cc(S(F)(F)(F)(F)F)c1", "Growth Rate": 1}
{"Compound": "CCCSc1nc(N[C@@H]2C[C@H]2c2ccc(F)c(F)c2)c2nnn([C@@H]3C[C@H](OCCO)[C@@H](O)[C@H]3O)c2n1", "Growth Rate": 0}
{"Compound": "COc1ccc(S(=O)(=O)N2c3ccc(Cl)cc3[C@](O)(c3ccccc3Cl)[C@@H]2C(=O)N2CCC[C@H]2C(N)=O)cc1OC", "Growth Rate": 0}
{"Compound": "CCc1ccc(OCc2ccccc2C(=O)Nc2ccc3nc(C)cc(N)c3c2)cc1.Cl", "Growth Rate": 0}
{"Compound": "Cc1cc([C@@H](C)Nc2ccccc2C(=O)O)c2nc(N3CCOCC3)cc(=O)n2c1", "Growth Rate": 1}
{"Compound": "O=C(N[C@@H](C1CC1)C(F)(F)F)c1cc(-c2cnn3cc(-c4ccc(F)cc4)cnc23)cs1", "Growth Rate": 1}
{"Compound": "CC(C)OC(=O)N1CCC(Oc2ncnc3c2cnn3-c2ccc(S(C)(=O)=O)cc2F)CC1", "Growth Rate": 0}
{"Compound": "O=c1cc(N2CCOCC2)oc2c(-c3cccc4c3sc3ccccc34)cccc12", "Growth Rate": 0}
{"Compound": "O=C(O)C1CN(Cc2ccc(OCc3ccc(Cl)c(Cl)c3)cc2)C1", "Growth Rate": 0}
{"Compound": "CCc1nn(CCCN2CCN(c3cccc(Cl)c3)CC2)c(=O)n1CCOc1ccccc1.Cl [NEFAZODONE HYDROCHLORIDE]", "Growth Rate": 0}

====

Below, each of the molecules is paired with its reported Population Hoechst High Intensity Objects (%) value.
Tested on: U2OS
Assay notes: Multiplex assay against U2OS
Type: toxicity, cell-based
Test parameters: human, 12 h, 10 µM, compound concentration 10 uM, replicate 1
Endpoint label: Population Hoechst High Intensity Objects (%)

{"Molecule": "COc1ccc(-c2ccc3ncc4c(c3c2)n(-c2ccc(N3CCNCC3)c(C(F)(F)F)c2)c(=O)n4C)cn1.O=C(O)/C=C\\C(=O)O", "Units label": "%", "Numeric value": 13}
{"Molecule": "O=c1cc(N2CCOCC2)oc2c(-c3cccc4c3sc3ccccc34)cccc12", "Units label": "%", "Numeric value": 4}
{"Molecule": "C=CC(=O)Nc1ccc2[nH]c(=O)n(C3CCN(Cc4ccc(-c5nc6cc[nH]c(=O)c6cc5-c5ccccc5)cc4)CC3)c2c1", "Units label": "%", "Numeric value": 4}
{"Molecule": "Cc1cccc(CN2CCN(C(c3ccccc3)c3ccc(Cl)cc3)CC2)c1.Cl.Cl (stereo not drawn)", "Units label": "%", "Numeric value": 5}
{"Molecule": "CC(C)NC(=O)N1CC[C@H](NC2=Nc3cc(F)ccc3N(CC(F)F)c3ccc(Cl)cc32)C1", "Units label": "%", "Numeric value": 11}
{"Molecule": "C=CC(=O)Nc1cccc(Sc2nc(Nc3ccc(N4CCN(C)CC4)cc3)ncc2Cl)c1", "Units label": "%", "Numeric value": 1}
{"Molecule": "CNC(=O)Nc1ccc(-c2nc(N3CC4CCC(C3)O4)c3cnn(C4CCC5(CC4)OCCO5)c3n2)cc1", "Units label": "%", "Numeric value": 13}
{"Molecule": "C=CC(=O)Nc1cccc(Oc2nc(Nc3ccc(N4CCN(C)CC4)cc3OC)ncc2Cl)c1", "Units label": "%", "Numeric value": 1}

====

Below, each of the compounds is paired with its reported Population Normal (%) value.
Test system: HEK-293T
Assay notes: Multiplex assay against HEK293T
Type: toxicity, cell-based
Test parameters: human, 48 h, 10 µM, compound concentration 10 uM, replicate 1

{"Compound": "CCc1ccc(OCc2ccccc2C(=O)Nc2ccc3nc(C)cc(N)c3c2)cc1.Cl", "Population Normal (%)": 77}
{"Compound": "Cc1c[nH]c2nccc(Oc3c(F)cc(Nc4cc(Cl)nc(N)n4)cc3F)c12", "Population Normal (%)": 90}
{"Compound": "Cc1ccccc1C(c1ccccc1C)N1C2CCC1CC(O)(c1ccccc1)C2 (stereo not drawn)", "Population Normal (%)": 91}
{"Compound": "O=C(c1cc2c(cc1F)OC(c1ccc(F)cc1)(c1ccc(Cl)cc1Cl)O2)N1CCOCC1 (stereo not drawn)", "Population Normal (%)": 89}
{"Compound": "Cc1cccc(CN2CCN(C(c3ccccc3)c3ccc(Cl)cc3)CC2)c1.Cl.Cl (stereo not drawn)", "Population Normal (%)": 87}
{"Compound": "COc1cc(Nc2nccc(-c3cnn4nc(OC)ccc34)n2)cc(C(F)(F)F)c1", "Population Normal (%)": 74}
{"Compound": "COc1ccccc1CN[C@H]1C2CCN(CC2)[C@H]1C(c1ccccc1)c1ccccc1", "Population Normal (%)": 86}
{"Compound": "CN1CCN(Cc2ccc(Nc3ncc(Cl)c(Nc4ccccc4S(=O)(=O)N(C)C)n3)cc2)CC1", "Population Normal (%)": 84}
{"Compound": "Cl.O=C(O)c1cc(-c2ccc(C3CCNCC3)cc2)c2ccc(-c3ccc(C(F)(F)F)cc3)cc2c1", "Population Normal (%)": 78}
{"Compound": "CC(C)(C)NC[C@H](O)COc1nsnc1N1CCOCC1", "Population Normal (%)": 94}
{"Compound": "CCCSc1nc(N[C@@H]2C[C@H]2c2ccc(F)c(F)c2)c2nnn([C@@H]3C[C@H](OCCO)[C@@H](O)[C@H]3O)c2n1", "Population Normal (%)": 75}
{"Compound": "COC(=O)C1=C(C)NC(C)=C(C(=O)OCCCN2CCC(c3ccccc3)(c3ccccc3)CC2)[C@H]1c1cccc([N+](=O)[O-])c1", "Population Normal (%)": 85}
{"Compound": "CC(C)NC(=O)N1CC[C@H](NC2=Nc3cc(F)ccc3N(CC(F)F)c3ccc(Cl)cc32)C1", "Population Normal (%)": 80}
{"Compound": "CC(C)OC(=O)N1CCC(Oc2ncnc3c2cnn3-c2ccc(S(C)(=O)=O)cc2F)CC1", "Population Normal (%)": 83}
{"Compound": "CC(C)Oc1ccccc1C(=O)Nc1ccccc1C(=O)Nc1cccc(S(=O)(=O)C(F)(F)F)c1", "Population Normal (%)": 86}
{"Compound": "Cc1ccc(C)c(Oc2ccncc2C(=O)N2CCN(C3CC3)c3ccccc32)c1", "Population Normal (%)": 84}
{"Compound": "Cc1ccc2c(c1)c1c(n2CCc2ccc(C)nc2)CCN(C)C1 [LATREPIRDINE]", "Population Normal (%)": 75}
{"Compound": "C[C@]12CC[C@@H]3c4ccc(O)cc4CC[C@H]3[C@@H]1CC[C@@H]2O", "Population Normal (%)": 88}
{"Compound": "COc1ccc(-c2ccc3ncc4c(c3c2)n(-c2ccc(N3CCNCC3)c(C(F)(F)F)c2)c(=O)n4C)cn1.O=C(O)/C=C\\C(=O)O", "Population Normal (%)": 57}
{"Compound": "CC(C)c1noc(N2CCC(COc3ccc(-c4ccc(S(C)(=O)=O)cc4)nc3)CC2)n1", "Population Normal (%)": 74}
{"Compound": "CC1=C(C(=O)Nc2cc3cn[nH]c3cc2F)C(c2ccc(C(F)(F)F)cc2)CC(=O)N1 (stereo not drawn)", "Population Normal (%)": 85}
{"Compound": "CNC(=O)Nc1ccc(-c2nc(N3CC4CCC(C3)O4)c3cnn(C4CCC5(CC4)OCCO5)c3n2)cc1", "Population Normal (%)": 76}
{"Compound": "CCOC(=O)Nc1cc(-c2ccc(C)c(NS(C)(=O)=O)c2)nn2c(C)nnc12", "Population Normal (%)": 88}
